Would you kindly list ED50 for each of these compounds?
# System: Rattus norvegicus
# Method Notes: Antiulcer activity in male Donry rat for 50% inhibition of aspirin induced gastric lesions after intraduodenal administration.
# Format: functional
# Condition: Stomach
One number for each entry, in mg/kg.

For orientation, consider the following solved cases.
compound=N=C(S)CCCCCCN1N=C(c2ccccc2)CCC1=O target="Rattus norvegicus" recorded_value=72.3
compound=Cc1cc(-c2ccccc2)nn(CCC(=N)S)c1=O target="Rattus norvegicus" recorded_value=73.1
compound="CN1[C@@H]2CC[C@H]1C[C@@H](OC(=O)C(CO)c1ccccc1)C2.O=S(=O)(O)O (stereo partly specified) [ATROPINE SULFATE]" target="Rattus norvegicus" recorded_value=4.5
compound=N=C(S)CCCn1nc(-c2ccccc2)ccc1=O target="Rattus norvegicus" recorded_value=38
compound="CC(Cn1nc(-c2ccccc2)ccc1=O)C(=N)S (stereo unspecified)" target="Rattus norvegicus" recorded_value=35

Give ED50 for each of the items listed below.
1. C/N=C(\S)CCn1nc(-c2ccccc2)ccc1=O
2. N=C(S)CCn1nc(-c2ccccc2)ccc1=O

[66.3, 53.5]

# return ED50 for each item in the list
1. C/N=C(/S)CCCCCn1nc(-c2ccccc2)ccc1=O
2. N=C(S)CCCCCn1nc(-c2ccccc2)ccc1=O
3. C/N=C(\S)C(C)Cn1ncccc1=O (stereo unspecified)

45.5
18.2
68.5
